assayTarget: porcine pancreatic PLA2 (group I) (Sus scrofa, UniProt P00592)
Sequence (P00592 23-146): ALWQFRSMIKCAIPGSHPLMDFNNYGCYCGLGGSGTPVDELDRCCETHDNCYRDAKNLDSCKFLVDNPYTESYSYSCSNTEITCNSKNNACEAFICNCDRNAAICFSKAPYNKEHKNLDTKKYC
testMethodNotes: UV spectrophotometric anti-PLA2 assay, porcine pancreatic PLA2 (group I)
Type: biochemical
experimentalSetup: UV spectrophotometric method, read-out: Anti-PLA2 activity IC50 PPLA2 spectro
pIC50: −log10 of the molar value.
readoutType: pIC50

Any idea what its pIC50 is? The compound is CCCCCCCCCCCCCCCCCCN1CCN(C(=O)c2ccc(C=C3SC(=O)NC3=O)cc2)CC1
< 4.00

Attribution: patent US20050075345A1
